tested on: mAb E10B10; experiment: Fine epitope mapping of mAb E10B10 with 1068 circular peptides from SRCR-1 to -3 of mouse CD163; assay type: binding; details: circular peptides of 7, 10 and 13 amino acids from mouse CD163
VALUE_TYPE: rank by relative signal strength (top binding peptides of mAb E10B10)

• 371 (VTNAPGE) [compound 371] = 04
• 374 (SASAVTNAPGEMK) [compound 374] = 07
• 375 (SGSASAVTNAPGE) [compound 375] = 08
• 369 (ASAVTNAPGEMKK) [compound 369] = 02
• 373 (AVTNAPGEMKKEL) [compound 373] = 06
• 378 (ASAVTNAPGE) [compound 378] = 11
• 368 (VTNAPGEMKKELR) [compound 368] = 01
• 372 (GSASAVTNAPGEM) [compound 372] = 05
• 377 (SAVTNAPGEM) [compound 377] = 10
• 380 (TNAPGEMKKE) [compound 380] = 13
• 376 (AVTNAPGEMK) [compound 376] = 09
• 379 (SAVTNAPGEMKKE) [compound 379] = 12
• 370 (VTNAPGEMKK) [compound 370] = 03

Data credit: patent US20250213707A1
